Test: Inhibition of IL5 in mouse Y16 cells
Format: functional
Parameters: concentration or dose not given beside the values
Measure: Inhibition
Answer with the figure and its unit, nothing else.

Smiles notation: CC(=O)Nc1ccc(/C=C/C(=O)c2c(O)cccc2OCC2CCCCC2)cc1
Inhibition: 99.2%
--
Smiles notation: O=C(/C=C/c1ccccc1)c1c(O)cccc1OCC1CCCCC1
Inhibition: 99.6%
--
Smiles notation: O=C(/C=C/c1ccc(O)cc1)c1ccccc1O
Inhibition: 50%
--
Smiles notation: O=C(O)c1ccc(/C=C/C(=O)c2ccc(OCc3ccccc3)cc2O)cc1
Inhibition: 100%
--
Smiles notation: CCc1ccc(/C=C/C(=O)c2c(O)cccc2OCC2CCCCC2)cc1
Inhibition: 82.3%

Let me know recorded Inhibition for O=C(/C=C/c1ccc(O)cc1)c1c(O)cccc1OCc1ccccc1 , thanks.
78.8%

Return Inhibition for the following compound: O=C(O)c1cccc(/C=C/C(=O)c2c(O)cccc2OCC2CCCCC2)c1
98.1%

Kindly indicate its recorded Inhibition. Item: O=C(O)c1ccccc1/C=C/C(=O)c1c(O)cccc1OCC1CCCCC1
-18.9%

Look up Inhibition of COC(=O)c1ccc(/C=C/C(=O)c2c(O)cccc2OCC2CCCCC2)cc1 and report it.
98.6%

* * *

As shown below, each of these compounds has a reported Inhibition value.
Assay: Inhibition of IL5 in mouse Y16 cells
Assay type: functional
Design: concentration or dose not given beside the values
Provide the measurement as a number trailed by its unit.

Example entries begin here.
Smiles notation: NS(=O)(=O)c1ccc(/C=C/C(=O)c2c(O)cccc2OCC2CCCCC2)cc1
Measure: Inhibition
Reported: 99.5%
//
Smiles notation: O=C(/C=C/c1ccc(Cl)cc1)c1c(O)cccc1OCC1CCCCC1
Measure: Inhibition
Reported: 98.8%
//
Smiles notation: O=Cc1ccc(/C=C/C(=O)c2c(O)cccc2OCC2CCCCC2)cc1
Measure: Inhibition
Reported: 99.8%
//
Smiles notation: COCOc1ccc(/C=C/C(=O)c2c(O)cccc2OCC2CCCCC2)cc1
Measure: Inhibition
Reported: 13%
//
Smiles notation: O=C(O)c1ccc(CCC(=O)c2c(O)cccc2OCC2CCCCC2)cc1
Measure: Inhibition
Reported: 15.6%
//
Smiles notation: O=C(/C=C/c1ccc(O)cc1)c1ccc(OCC2CCCCC2)cc1O
Measure: Inhibition
Reported: 59.7%

Now, please, on to the next compound.
Output Inhibition of O=C(O)c1ccc(/C=C/C(=O)c2ccccc2O)cc1
-18.7%
